Origin of the recorded values: patent US20120178815A1

- system_name: α2c adrenergic receptor (Homo sapiens, UniProt P18825)
- Sequence (P18825 1-462): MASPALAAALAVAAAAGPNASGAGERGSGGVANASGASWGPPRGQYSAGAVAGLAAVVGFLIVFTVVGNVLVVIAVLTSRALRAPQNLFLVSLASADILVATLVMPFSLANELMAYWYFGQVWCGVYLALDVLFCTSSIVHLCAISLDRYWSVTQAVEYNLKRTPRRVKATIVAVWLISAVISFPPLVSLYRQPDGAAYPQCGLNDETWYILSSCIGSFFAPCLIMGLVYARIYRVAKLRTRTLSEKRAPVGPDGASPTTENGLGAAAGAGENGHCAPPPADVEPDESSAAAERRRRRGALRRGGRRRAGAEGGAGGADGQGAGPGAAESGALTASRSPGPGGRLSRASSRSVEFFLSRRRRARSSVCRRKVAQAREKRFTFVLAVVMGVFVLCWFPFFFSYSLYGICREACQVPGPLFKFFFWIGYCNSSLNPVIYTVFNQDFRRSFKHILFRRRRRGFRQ
measure_name: pKi
Please report pKi as the negative decimal logarithm of the molar concentration, giving only the number.

Asked: pKi for CN(C)CCC=C1c2ccccc2CCc2ccccc21 [AT, amitriptyline, reference compound] ?
Given back: 7.89
